Exercise: for every item that follows, state its recorded GI50.
Tested on: COLO 205 colon
PROTOCOL: NCI tumour cell line growth inhibition, 48 h

Worked examples, 5 compounds total:
C[C@@H](Nc1nc(N[C@H](C)C(F)(F)F)nc(-c2cccc(Cl)n2)n1)C(F)(F)F; > 100000 nM
C[C@@H](O)[C@@H](C)Oc1nc(Nc2ccc(S(=N)(=O)C3CC3)cc2)ncc1C(F)(F)F (stereo partly drawn); 15.8 nM
O=C(Nc1ccc(OS(=O)(=O)c2ccc(F)cc2)cc1)C12CC3CC(CC(C3)C1)C2; 434 nM
C1=N[C@]23C(=N[C@H](N=C2NCc2ccco2)[C@]24N=CNC2=N[C@H]3N=C4NCc2ccco2)N1; > 100000 nM
Oc1ccc(NC(=S)Nc2ccccc2)cc1; > 100000 nM

Record GI50 for all entries; do not skip any.
1. CC/C=C\C[C@H]1C/C=C2/C(=O)C=C[C@H]2C/C=C\CCCC(=O)O1
2. CN(C)c1ccc(/C=C/C(=O)c2ccc(Nc3nc(Nc4ccc(F)cc4)nc(Nc4ccc(F)cc4)n3)cc2)cc1
3. CCOC(=O)/C(=C/CC/C(C)=C/CC/C(C)=C/CCc1ccoc1)CC(=O)N1CCCCC1

1870 nM
5160 nM
2320 nM

---

Tested on: NCI-H460 lung
PROTOCOL: NCI tumour cell line growth inhibition, 48 h; in the data active = GI50 below about 0.43 µM; inactive = the rest
Pick one and only one: True = active, False = inactive

These solved cases illustrate the format of a correct answer.
Oc1ccc(NC(=S)Nc2ccccc2)cc1; False
CCn1cnc(C[C@H](NC(=O)[C@H](CCCCNC(=O)Nc2cc(C(F)(F)F)cc(C(F)(F)F)c2)NC(=O)Nc2cc(C(F)(F)F)cc(C(F)(F)F)c2)C(=O)OC)c1; False

Field: outcome | Entry: `O=c1cc(-c2ccc(Cl)cc2)[nH]c2ccccc12`
False

---

Test system: ACHN renal
PROTOCOL: NCI tumour cell line growth inhibition, 48 h
MEASURED ATTRIBUTE: TGI (µM)
Give bare numbers, in µM.

O=C(NC1CCN(Cc2ccccc2)CC1)c1cc(-c2cccnc2)nc2ccc(Cl)cc12; 6.54

Consider the additional compound presented here.
Per the records, this compound ( `CCCCCCCCCCC(=O)CCCCCCC(=O)O` ) has TGI equal to 56.6

---

Exercise: for every item that follows, state its recorded GI50.
Test system: OVCAR-4 ovarian
PROTOCOL: NCI tumour cell line growth inhibition, 48 h

Worked examples, 4 compounds total:
O=C(NC1CCN(Cc2ccccc2)CC1)c1cc(-c2cccnc2)nc2ccc(Cl)cc12; 9.01 µM
COc1cccc(/C=N/[N-]C(=O)c2ccncc2)c1[O-].[Mn+2].[OH3+]; 22.1 µM
O=C([CH-]C(=O)c1ccccc1)c1ccccc1.[C-]#[O+].[C-]#[O+].[Ir]; > 100 µM
COc1ccc(-n2cc(-c3cc(OC)c(OC)c(OC)c3)nc2SCc2ccc(Cl)cc2)cc1OC; 71.9 µM

Record GI50 for all entries; do not skip any.
1. NC(N)=NN=c1c(=O)c2ccccc2c1=O
2. CCN(C(=O)N1CCN(c2cc3c(cc2F)c(=O)c(C(=O)O)cn3C2CC2)CC1)c1nc(-c2ccccc2)cs1
3. Cc1c(C)c2c(c(C)c1OC(=O)CCC(=O)[O-])CCC(C)(CCCCCCCCCCC[P+](c1ccccc1)(c1ccccc1)c1ccccc1)O2 (stereo unspecified)
4. C[C@@H]1CC[C@H]2[C@@H](C)C(O)O[C@@H]3O[C@]4(C)CC[C@@H]1[C@]32OO4 (stereo partly specified)
5. C[C@H]1CCC/C=C/C2CC(OC(=O)CN(C)C)CC2C(OC(=O)CN(C)C)/C=C/C(=O)O1 (stereo partly specified)
6. COc1ccc(-c2nn(-c3cccc(Cl)c3)cc2/C=C2\NC(=S)N(c3ccc(Cl)cc3)C2=O)cc1
7. Cc1cccc2c(C3=C(c4cn(C)c5ccccc45)C(=O)NC3=O)cn(C)c12

1: 12.6 µM; 2: 2.29 µM; 3: 0.158 µM; 4: 2.43 µM; 5: 0.349 µM; 6: 3.54 µM; 7: 6.64 µM
